Origin of measurements: patent US5424303A

# Test system: lipid peroxidation (rat liver homogenate)
# methodNotes: Antioxidant activity, inhibition of iron induced lipid peroxidation in liver homogenate
# Format: biochemical, Wistar rat
# experimentalContext: FeSO4, 37° C., 2 h; <25 μM where IC50 was not determined
readout: IC50

[[record]]
molecule = "CCOP(=O)(OCC)C(NCc1ccccc1)c1cc(OC)c(O)c(OC)c1 (stereo not drawn)"
result = "> 25 µM"

[[record]]
molecule = "CCCOP(=O)(OCCC)C(c1cc(C(C)(C)C)c(O)c(C(C)(C)C)c1)N(CCCc1ccccc1)C(C)=O (stereo not drawn)"
result = "< 25 µM"

[[record]]
molecule = "CCOP(=O)(OCC)C(NCCOc1ccccc1)c1cc(C(C)(C)C)c(O)c(C(C)(C)C)c1 (stereo not drawn)"
result = "< 25 µM"

[[record]]
molecule = "CCOP(=O)(OCC)C(NCCCc1ccccc1)c1cc(C(C)(C)C)c(O)c(C(C)(C)C)c1 (stereo not drawn) [Compound 22]"
result = "4 µM"

[[record]]
molecule = "CCOP(=O)(OCC)C(c1cc(C(C)(C)C)c(O)c(C(C)(C)C)c1)N(C)c1ccccc1 (stereo not drawn)"
result = "2.9 µM"

[[record]]
molecule = "CCOP(=O)(OCC)C(Nc1cccnc1)c1cc(C(C)(C)C)c(O)c(C(C)(C)C)c1 (stereo not drawn)"
result = "3.5 µM"

[[record]]
molecule = "CCOP(=O)(OCC)C(Nc1cccc(C)c1)c1cc(C(C)(C)C)c(O)c(C(C)(C)C)c1 (stereo not drawn)"
result = "< 25 µM"

[[record]]
molecule = "CCCCCc1ccc(N(C(=O)C(F)(F)F)C(c2cc(C(C)(C)C)c(O)c(C(C)(C)C)c2)P(=O)(OCC)OCC)cc1 (stereo not drawn)"
result = "< 25 µM"

[[record]]
molecule = "CCOP(=O)(OCC)C(NC1(c2ccccc2)CCCC1)c1cc(C(C)(C)C)c(O)c(C(C)(C)C)c1 (stereo not drawn)"
result = "< 25 µM"

[[record]]
molecule = "CCCOP(=O)(OCCC)C(NCCCc1ccccc1)c1cc(C(C)(C)C)c(O)c(C(C)(C)C)c1 (stereo not drawn)"
result = "< 25 µM"

[[record]]
molecule = "CCOP(=O)(OCC)C(c1cc(C(C)(C)C)c(O)c(C(C)(C)C)c1)N(Cc1ccccc1)C(=O)C(F)(F)F (stereo not drawn)"
result = "< 25 µM"

[[record]]
molecule = "CCOP(=O)(OCC)C(c1cc(C(C)(C)C)c(O)c(C(C)(C)C)c1)N(C)Cc1cccnc1 (stereo not drawn)"
result = "12.8 µM"

[[record]]
molecule = "CCOP(=O)(OCC)C(NCc1ccc(OC)c(OC)c1)c1cc(C(C)(C)C)c(O)c(C(C)(C)C)c1 (stereo not drawn)"
result = "4.9 µM"

[[record]]
molecule = "CCOP(=O)(OCC)C(NCCc1ccccn1)c1cc(C(C)(C)C)c(O)c(C(C)(C)C)c1 (stereo not drawn)"
result = "< 25 µM"

[[record]]
molecule = "COP(=O)(OC)C(c1cc(C(C)(C)C)c(O)c(C(C)(C)C)c1)N(CCCc1ccccc1)C(C)=O (stereo not drawn)"
result = "< 25 µM"

